- test.system: KDR endogenously expressed on human umbilical vein endothelial cells (HUVEC) (human, UniProt P35968 20-1356); note: test concentration or dose not given here
- Sequence (P35968 20-1356): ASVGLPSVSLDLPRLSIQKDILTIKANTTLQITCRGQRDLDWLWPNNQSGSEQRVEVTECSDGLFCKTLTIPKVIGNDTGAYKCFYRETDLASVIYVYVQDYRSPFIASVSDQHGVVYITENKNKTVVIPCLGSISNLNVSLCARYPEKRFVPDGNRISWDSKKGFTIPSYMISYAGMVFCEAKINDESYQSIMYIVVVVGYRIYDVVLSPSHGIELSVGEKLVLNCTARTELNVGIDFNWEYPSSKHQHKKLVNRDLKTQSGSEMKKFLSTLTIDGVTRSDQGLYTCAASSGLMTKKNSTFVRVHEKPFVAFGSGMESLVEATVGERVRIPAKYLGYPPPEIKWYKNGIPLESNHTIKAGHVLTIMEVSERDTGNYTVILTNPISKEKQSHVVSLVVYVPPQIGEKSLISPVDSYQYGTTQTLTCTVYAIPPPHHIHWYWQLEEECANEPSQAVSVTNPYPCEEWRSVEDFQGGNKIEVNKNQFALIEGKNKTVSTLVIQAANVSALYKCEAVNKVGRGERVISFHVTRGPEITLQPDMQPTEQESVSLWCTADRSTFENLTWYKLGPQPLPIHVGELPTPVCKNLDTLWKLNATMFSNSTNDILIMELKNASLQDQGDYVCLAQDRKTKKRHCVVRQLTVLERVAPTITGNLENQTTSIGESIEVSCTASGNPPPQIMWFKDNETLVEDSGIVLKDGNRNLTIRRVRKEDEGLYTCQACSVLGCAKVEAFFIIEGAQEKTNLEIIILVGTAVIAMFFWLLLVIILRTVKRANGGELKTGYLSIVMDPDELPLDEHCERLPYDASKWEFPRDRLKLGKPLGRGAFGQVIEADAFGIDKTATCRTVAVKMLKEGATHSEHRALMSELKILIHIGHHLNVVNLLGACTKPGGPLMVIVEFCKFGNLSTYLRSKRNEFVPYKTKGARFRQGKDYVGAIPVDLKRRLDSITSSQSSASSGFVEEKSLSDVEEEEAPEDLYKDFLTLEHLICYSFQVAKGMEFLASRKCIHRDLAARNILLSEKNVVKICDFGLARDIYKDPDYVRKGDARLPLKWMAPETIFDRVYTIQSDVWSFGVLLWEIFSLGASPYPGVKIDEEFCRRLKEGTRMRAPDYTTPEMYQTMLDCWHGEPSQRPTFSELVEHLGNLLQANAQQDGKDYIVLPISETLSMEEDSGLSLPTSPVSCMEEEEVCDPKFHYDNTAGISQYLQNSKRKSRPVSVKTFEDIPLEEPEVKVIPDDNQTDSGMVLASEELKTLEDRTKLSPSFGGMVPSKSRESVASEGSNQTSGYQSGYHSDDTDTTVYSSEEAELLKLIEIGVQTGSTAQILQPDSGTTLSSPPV
- assay.notes: cell-based or functional assay
result.type: VEGF-E-mediated Survival % Inhibition (n = 2) (%)
Give the quantity in %, number only.

[Q] Please look at this binder and report its VEGF-E-mediated Survival % Inhibition (n = 2): 21H6 (antibody, V domains shown, Fully human mAb from XenoMouse hybridoma, tested as hybridoma supernatant) VH: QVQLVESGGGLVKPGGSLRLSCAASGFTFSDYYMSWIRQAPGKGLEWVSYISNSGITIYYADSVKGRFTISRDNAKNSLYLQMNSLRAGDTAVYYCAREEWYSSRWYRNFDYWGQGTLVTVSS VL: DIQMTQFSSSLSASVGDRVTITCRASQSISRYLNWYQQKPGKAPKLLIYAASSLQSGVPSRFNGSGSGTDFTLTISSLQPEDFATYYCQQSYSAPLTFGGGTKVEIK
[A] 53

[Q] Quote VEGF-E-mediated Survival % Inhibition (n = 2) reported for 33D5 (antibody, V domains shown, Fully human mAb from XenoMouse hybridoma, tested as hybridoma supernatant) VH: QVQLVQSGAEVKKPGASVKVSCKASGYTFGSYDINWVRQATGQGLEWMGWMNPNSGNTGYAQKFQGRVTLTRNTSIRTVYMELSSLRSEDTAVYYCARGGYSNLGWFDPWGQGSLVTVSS VL: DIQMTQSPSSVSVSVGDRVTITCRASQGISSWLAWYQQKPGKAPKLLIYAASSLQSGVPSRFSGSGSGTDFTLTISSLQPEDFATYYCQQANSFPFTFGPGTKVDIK please.
[A] 2

[Q] Provide measured VEGF-E-mediated Survival % Inhibition (n = 2) value, entry: 24C9 (antibody, V domains shown, Fully human mAb from XenoMouse hybridoma, tested as hybridoma supernatant) VH: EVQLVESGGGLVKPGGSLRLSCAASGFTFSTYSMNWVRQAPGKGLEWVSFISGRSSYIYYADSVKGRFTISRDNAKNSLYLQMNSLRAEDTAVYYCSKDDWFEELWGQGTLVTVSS VL: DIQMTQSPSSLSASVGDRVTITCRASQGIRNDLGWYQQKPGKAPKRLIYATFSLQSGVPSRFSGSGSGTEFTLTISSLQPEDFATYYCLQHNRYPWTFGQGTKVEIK
[A] 72
